tested on: TLR2 induced IL-6 in peripheral blood mononuclear cells (PBMCs); experiment: PBMC TLR2 Induced IL-6 Assay; type: cell-based, human; details: Homo sapiens, PBMC, 5 h, human PBMCs, 10 μg/ml lipoteichoic acid for 5 hours, IL-6 by ELISA; value without asterisk; read-out: Cell IC50
Provide the reported log10(IC50) of each item.
For clarity, the numbers are log10 values of IC50 expressed in nM.

// sample CC(C)NC(=O)N[C@H]1CC[C@H](NC(=O)c2cnc(Nc3ccc4ncsc4c3)cc2NC(C)C)CC1 , its log10(IC50) was 2.14

Briefly, log10(IC50) measured for CC(C)CCNc1cc(Nc2ccc3ncsc3c2)ncc1C(=O)NC[C@@H](F)C(C)(C)O : 2.36

Documented log10(IC50) of CN(C)CC(=O)NC12CCC(Nc3cc(Nc4ccc5ncsc5c4)ncc3C(=O)NC[C@@H](F)C(C)(C)O)(CC1)C2 : 2.48

Lookup result for CC(C)Nc1cc(Nc2ccc3ncsc3c2)ncc1C(=O)N[C@H]1CCN(S(C)(=O)=O)C1 ; measured log10(IC50): 2.75

For reference, reported log10(IC50) for CC(C)(O)[C@H](F)CNC(=O)c1cnc(Nc2ccc3nccn3n2)cc1NC1CC1 stands at 2.29

Value of log10(IC50) reported for the compound CC(C)(O)[C@H](F)CNC(=O)c1cnc(Nc2ccc3ncsc3c2)cc1NC12CCC(NC(=O)c3cccnc3)(CC1)C2 is 2.52

The recorded log10(IC50) for entry CNC(=O)c1cc(F)c(Nc2cc(Nc3ccc4ncsc4c3)ncc2C(=O)NC[C@@H](F)C(C)(C)O)cc1F equals 2.45

Consider CC(C)(O)[C@H](F)CNC(=O)c1cnc(Nc2ccc3ncsc3c2)cc1NC1CC2CCC1C2 (stereo partly drawn) . Its measured log10(IC50) is 1.51

Short answer for CC(C)(O)[C@H](F)CNC(=O)c1cnc(Nc2ccc3nccn3n2)cc1NC1CCOCC1F (stereo partly drawn) : log10(IC50) was 2.71

Measured log10(IC50) of CC(C)Nc1cc(Nc2ncc3ncccc3n2)ncc1C(=O)NC[C@@H](F)C(C)(C)O : 2.76

Entry under test: CC(C)(F)CNc1cc(Nc2ccn3ncc(F)c3n2)ncc1C(=O)NC[C@@H](F)C(C)(C)O . Its log10(IC50) was 2.51

# compound CC(C)(O)[C@H](F)CNC(=O)c1cnc(Nc2ccc3nsnc3c2)cc1NC1CCCC1 ; its log10(IC50) = 2.95

According to the records, this compound CC(=O)N[C@H]1CC[C@H](NC(=O)c2cnc(Nc3nc4ccnn4cc3F)cc2NC2CCOCC2)CC1 displays log10(IC50) of 3.20

Recorded log10(IC50) (compound CC(C)Nc1cc(Nc2ccc3ncsc3c2)ncc1C(=O)N[C@H]1CC[C@H](NC(=O)c2ccccn2)CC1 ): 2.70

log10(IC50) reading for CC(C)(O)[C@H](F)CNC(=O)c1cnc(Nc2ccc3nccn3n2)cc1NC1CCC1 : 2.24
